Numbers sourced from patent US20190030166A1.

quantity: Heating time necessary for solubilizing in ethanol (h)
All answers are understood in h, so give the number only.

Guide cases for Heating time necessary for solubilizing in ethanol, answers given:
NCCCC[C@H](N)C(=O)O [Lysine, L-(+) lysine]	0.5
CC[C@H](C)[C@H](N)C(=O)O [Isoleucine, L(+)-isoleucine]	0.25
C[C@H](N)C(=O)O	5

Which Heating time necessary for solubilizing in ethanol reading was recorded for the molecule NC(=O)CC[C@H](N)C(=O)O [Glutamine, L(+)-glutamine] ?
24

// query: N[C@@H](CS)C(=O)O
0.33

// query: N[C@@H](Cc1c[nH]cn1)C(=O)O
17.5

// query: CC(C)[C@H](N)C(=O)O
3

// query: N[C@@H](Cc1c[nH]c2ccccc12)C(=O)O
24
